- Test system: UACC-62 melanoma
- METHOD NOTES: NCI tumour cell line growth inhibition, 48 h
REPORTED METRIC: TGI

>>> result("COC(=O)[C@@]1(Cc2ccc(O)cc2)C[C@@H]2Cc3ccccc3N2N1")
"> 100 µM"
>>> result("COc1ccc(P2(=S)SP(=S)(c3ccc(Cl)cc3)S2)cc1 (centres undefined)")
"> 100 µM"
>>> result("CC1(c2cccc(N)c2)C2C(=O)NC(=O)C1C(=O)NC2=O (centres undefined)")
"> 100 µM"
>>> result("O=C(CC(C(=O)c1cccs1)c1cccs1)c1ccccc1Cl (centres undefined)")
"> 100 µM"
>>> result("Nc1nc2c(nnn2C2OC(CO)C(O)C2O)c(=O)[nH]1 (centres undefined)")
"12.9 µM"
>>> result("CC(=O)C=NCC(=O)O")
"> 100 µM"
>>> result("COc1cc(/C=C2\\Oc3cc(OCCCN4CCCC4)ccc3C2=O)cc(OC)c1")
"11.7 µM"
>>> result("Cc1nc2c(cc1C(=O)N/N=C/c1ccc([N+](=O)[O-])cc1)c(=O)n(C)c(=O)n2C")
"> 100 µM"
>>> result("CC[C@@H](C(=O)[C@H](C)[C@H](O)[C@@H](C)[C@H]1O[C@H]([C@@H](CC)C(=O)O)CC[C@H]1C)C1O[C@]2(C=C[C@@H](O)[C@]3(CC[C@@](C)([C@H]4CC[C@](O)(CC)[C@H](C)O4)O3)O2)[C@H](C)C[C@@H]1C (some centres undefined)")
"2.28 µM"

----------
- Test system: OVCAR-8 ovarian
- METHOD NOTES: NCI tumour cell line growth inhibition, 48 h
REPORTED METRIC: TGI

>>> result("CCOC(=O)C1=c2[nH]c3cccc4cccc(c43)n2C(=O)CC1c1ccccc1 (stereo not given)")
"> 100 µM"
>>> result("NNC1=N/C(=C\\c2ccco2)C(=O)N1")
"> 100 µM"
>>> result("NC1=NN(c2ccccc2)C(=O)C1/C(=N\\NC(=O)c1cc2ccccc2cc1O)C(=O)Nc1cccc(C(F)(F)F)c1 (stereo not given)")
"> 100 µM"
>>> result("O=c1c2c(c3ccccc3n1-c1ccccc1)NC(=S)NC2c1ccc(Cl)cc1 (stereo not given)")
"> 100 µM"
>>> result("COc1ccc(-c2nc(Nc3ccc(-c4nc5ccccc5[nH]4)cc3)nc(N3CCOCC3)n2)cc1")
"10.8 µM"
>>> result("CC1(c2cccc(N)c2)C2C(=O)NC(=O)C1C(=O)NC2=O (stereo not given)")
"> 100 µM"
>>> result("O=C(/C=C/c1ccccc1Cl)c1cccc2ccccc12")
"4.19 µM"
>>> result("COC(=O)N/N=C(\\C(=O)Nc1cccc([N+](=O)[O-])c1)c1nc2ccc([N+](=O)[O-])cc2[nH]c1=O")
"> 100 µM"
>>> result("N#CCCN(CCC#N)c1ccc(C(N=Nc2ccccc2)=Nc2ccc(Cl)cc2)cc1")
"> 100 µM"
>>> result("CC(=O)Oc1c2c(c(CC=C(C)C)c3c1C(=O)C1=C[C@@H]4CC5C(C)(C)OC(C/C=C(/C)C(=O)O)(C4=O)[C@@]15O3)OC(C)(CCC=C(C)C)C=C2 (stereo not given in full)")
"0.747 µM"

----------
Listed compounds paired with reported TGI
- System: NCI/ADR-RES ovarian
- METHOD NOTES: NCI tumour cell line growth inhibition, 48 h
REPORTED METRIC: TGI

>>> result("CSc1c(C(=O)Nc2ccc(C)cc2)c(N)n(N)c(=O)c1C#N")
"> 100 µM"
>>> result("Nn1c(CCCCCCCCc2nnc(COc3ccccc3)n2N)nnc1COc1ccccc1")
"> 100 µM"
>>> result("Cc1ccc(Nc2[nH]c(=O)[nH]c(=O)c2C)cc1Cl")
"> 100 µM"
>>> result("CCCCCCCCCCC/C=C\\C[C@H](O)C/C=C1/C(=O)C=C[C@@H]1C/C=C\\CCCC(=O)OC")
"2.93 µM"
>>> result("C[C@]12CC[C@H]3[C@@H](CCC4=CC(=O)CC[C@@]43C)[C@@H]1CC[C@@H]2C(=O)COS(=O)(=O)c1ccc(Br)cc1")
"> 100 µM"
>>> result("CC(=O)c1ccc(Nc2nc(Nc3ccc(F)cc3)nc(Nc3ccc(F)cc3)n2)cc1")
"54.1 µM"
>>> result("O=C(c1ccco1)c1c(C(F)(F)F)nc2ccc(C(F)(F)F)cc2[n+]1[O-]")
"> 100 µM"
>>> result("COc1c2c(cc3c1OCO3)C13C=CC(OC)CC1N(CC3)C2 (stereo not drawn)")
"> 100 µM"

----------
- System: PC-3 prostate
- METHOD NOTES: NCI tumour cell line growth inhibition, 48 h
Reported TGI is given for each of the following compounds.
REPORTED METRIC: TGI (µM)

>>> result_number("COc1ccc(-c2nnc3n(Cc4ccccc4)c4ccccc4n3c2=O)cc1")
32.4
>>> result_number("CCOC(=O)c1ccc2c(c1)nc(/C=C/c1ccc(Cl)cc1)n2-c1cc(C(C)(C)C)[nH]n1")
47
>>> result_number("CCOC(=O)CSc1nnc(CSc2nc(-c3ccccc3)c(-c3ccccc3)[nH]2)n1-c1ccccc1")
43.8
>>> result_number("NC1CCC(Nc2nc(NCc3cc(Cl)ccc3O)c3ncn(C4CCCC4)c3n2)CC1 (stereo unspecified)")
0.592
>>> result_number("COc1ccc(-c2nn(-c3cccc(NC(=O)Nc4ccccc4)c3)cc2-c2ccncc2)cc1Cl")
4.5
>>> result_number("O=c1c2cccc(F)c2sc2c(N3CCNCC3)nc3ccccc3c12")
2.7
>>> result_number("O=C1C(Nc2ccc(Br)cc2)=C(I)C(=O)c2ncccc21")
6.44
>>> result_number("C=C1CCC2C3(C)COC(c4c(OC)cccc4OC)OC3CCC2(C)C1C/C=C1/C(=O)OCC1O (stereo unspecified)")
11.7
>>> result_number("COc1cc2oc(-c3ccc(O)cc3O)c(CC=C(C)C)c(=O)c2c(O)c1/C=C/C(C)C")
8.2
>>> result_number("COC1=CC(=O)c2c(cc(COP(=O)(OCC3OC(n4cc(F)c(=O)[nH]c4=O)CC3O)N(C)CCCCCl)n2C)C1=O (stereo unspecified)")
22.7
>>> result_number("CC1CCCCN1CC(=O)c1ccc2c(c1)Sc1ccccc1O2 (stereo unspecified)")
26.1
>>> result_number("CO/C(=C/C(=O)C(Cl)(Cl)Cl)CC/C(=C\\C(=O)C(Cl)(Cl)Cl)OC")
87.7

----------
Parameter: TGI. Scope: all listed entries.
- Tested on: M14 melanoma
- METHOD NOTES: NCI tumour cell line growth inhibition, 48 h
REPORTED METRIC: TGI

>>> result("CC1(C)OCC(C2OC(OC(=O)c3ccc([N+](=O)[O-])cc3)C3OC(C)(C)OC23)O1 (centres undefined)")
"> 100 µM"
>>> result("COC(CC1(/C=C/O[Si](C(C)C)(C(C)C)C(C)C)C(=O)N(COCC[Si](C)(C)C)c2ccccc21)OC (centres undefined)")
"> 100 µM"
>>> result("C=C1CC[C@@H]2[C@](C)(COC(C)=O)[C@H](OC(C)=O)CC[C@@]2(C)[C@@H]1CC(Nc1ccc(S(=O)(=O)Nc2cc(C)on2)cc1)C1=CCOC1=O (some centres undefined)")
"4.17 µM"
>>> result("c1cc(CSSCc2ccncc2)ccn1")
"> 82.6 µM"
>>> result("CC(Oc1ccc(OCC2CCCCC2)cc1)C(=O)NCCO (centres undefined)")
"> 100 µM"
>>> result("COc1ccc(P2(=S)SP(=S)(c3ccc(Cl)cc3)S2)cc1 (centres undefined)")
"> 100 µM"
>>> result("Cc1ccc(S(=O)(=O)N2c3ccccc3[C@H]3CCC=C[C@H]32)cc1")
"43.3 µM"
>>> result("CCC(CCC(C)C1CCC2C3CC=C4CC(OC5OC(CO)C(O)C(O)C5O)CCC4(C)C3CCC12C)C(C)C (centres undefined)")
"> 100 µM"
>>> result("N#CCOc1ccc(/C=C/C(=O)c2ccc(Cl)cc2)cc1")
"> 100 µM"
>>> result("CC[C@@H](C(=O)[C@H](C)[C@H](O)[C@@H](C)[C@H]1O[C@H]([C@@H](CC)C(=O)O)CC[C@H]1C)C1O[C@]2(C=C[C@@H](O)[C@]3(CC[C@@](C)([C@H]4CC[C@](O)(CC)[C@H](C)O4)O3)O2)[C@H](C)C[C@@H]1C (some centres undefined)")
"2.89 µM"
>>> result("CN1CC[C@]2(c3cccc(O)c3)CC(=O)/C(=C/c3ccccc3)[C@H]1C2")
"9.46 µM"
>>> result("Nn1c(CCCCCCCCc2nnc(COc3ccccc3)n2N)nnc1COc1ccccc1")
"> 100 µM"
>>> result("CSc1nc2c(nc(N)n2C2OC(COC(C)=O)C(OC(C)=O)C(OC(C)=O)C2OC(C)=O)c(=O)n1C (centres undefined)")
"> 100 µM"
>>> result("CC1(C)CCCC(C)(C2CCC3(C)C2C(O)CC2C4(C)CCC(O)C(C)(C)C4C(O)CC23C)O1 (centres undefined)")
"31.7 µM"
>>> result("COc1cc(C(=O)C2C(=O)c3ccccc3C2C2(O)c3ccccc3CC2C(O)c2cc(OC)c(OC)c(OC)c2)cc(OC)c1OC (centres undefined)")
"> 100 µM"
>>> result("COc1ccc2c(c1)C1OCCNC1CC2 (centres undefined)")
"> 100 µM"
>>> result("O=C1CCCCC=C1C[N+](=O)[O-]")
"45 µM"
>>> result("N#Cc1cc([N+](=O)[O-])ccc1NC(=O)C(F)(F)F")
"> 100 µM"
>>> result("Cc1ccc(/C=C/C(=N/N=C(N)N)c2ccccc2)cc1")
"3.95 µM"
